system: Acinetobacter baumannii; experiment: MIC, sole activity (no second agent); type: cell-based; details: in the absence of Rifampicin; strain NCTC13423
Structures can show the parent of a compound that is named as a salt. Bridge positions count the residues as written; N and C are the ends. Square brackets hold non-standard residues; d marks the D form. Peptide text beside a SMILES is read from it. * marks the point of attachment. ξ: configuration not given here. ξβ3hGly(cHex) = NC(CC(=O)*)C1CCCCC1; Thr(3ξ) = CC(O)[C@H](N)C(=O)O; Dab = NCC[C@H](N)C(=O)O; Dap = NC[C@H](N)C(=O)O; X1 = CCCCCCC(O)C(=O)*
# MIC A. baumannii NCTC 13423 annotations
endpoint.label: MIC A. baumannii NCTC 13423

compound="CCCCCCC(O)C(=O)N[C@H](C(=O)N[C@@H](CCN)C(=O)N[C@H]1CCNC(=O)[C@H]([C@@H](C)O)NC(=O)[C@H](CCN)NC(=O)[C@H](CCN)NC(=O)[C@H](CC(C)C)NC(=O)[C@@H](Cc2ccccc2)NC(=O)[C@H](CCN)NC1=O)[C@@H](C)O (some centres unmarked) [Example 1] (X1-T[Dab][Dab][Dab][dF]L[Dab][Dab]T; lactam 3-C)" recorded_result="1 micrograms/mL"
compound="CC(C)C[C@@H]1NC(=O)[C@@H](Cc2ccccc2)NC(=O)[C@H](CCN)NC(=O)[C@@H](NC(=O)[C@H](CN)NC(=O)[C@@H](NC(=O)CC(N)C2CCCCC2)C(C)O)CCNC(=O)[C@H](C(C)O)NC(=O)[C@H](CCN)NC(=O)[C@H](CCN)NC1=O (stereo partly drawn) [Example 47, TFA salt] ({ξβ3hGly(cHex)}-[Thr(3ξ)][Dap][Dab][Dab][dF]L[Dab][Dab][Thr(3ξ)]; lactam 3-C)" recorded_result="0.5 micrograms/mL"

The measured values listed here are drawn from patent US10407467B2.
